# testedOn: human PASK (Homo sapiens)
# Construct: purchased ThermoFisher Scientific PR7013A
# assayExplanation: 33P radioactive kinase assay
# Type: biochemical
# testContext: 33P radioactive PASK kinase assay, 10 μM ATP, ZIPtide 1 μM
outcomeMeasure: IC50

Guide cases for IC50, answers given:
Cc1noc(C)c1-c1cnn2ccc(-c3ncc(C(=O)O)s3)cc12	0.01 to 10 nM
Cc1c(-c2cnn3ccc(-c4cc(C(=O)O)co4)cc23)c(C(F)(F)F)nn1C	0.01 to 10 nM
Cc1noc(C)c1-c1cnn2ccc(-c3ccc(C(=O)O)o3)cc12	10 to 100 nM
Cc1nn(C(C)C)c(C)c1-c1cnn2ccc(-c3nc(C(F)F)c(C(=O)O)s3)cc12	0.01 to 10 nM
Cc1nn(C(C)C)c(C)c1-c1cnn2ccc(-c3cc(C(=O)O)co3)cc12	0.01 to 10 nM

Prompt: Item under review: CCn1nc(C)c(-c2cnn3ccc(-c4ncc(C(=O)O)s4)cc23)c1C . Reported IC50?
Completion: 0.01 to 10 nM

Prompt: # input molecule: Cc1noc(C)c1-c1cnn2ccc(-c3nc(C(F)F)c(C(=O)O)s3)cc12 ; wanted: its IC50
Completion: 10 to 100 nM

Prompt: Given the entry Cc1nn(C(C)C)c(C)c1-c1cnn2ccc(-c3ncc(C(=O)O)s3)cc12 , report its measured IC50.
Completion: 0.01 to 10 nM

Prompt: For the molecule Cc1nn(C(F)F)c(C)c1-c1cnn2ccc(-c3cc(C(=O)O)co3)cc12 , what IC50 is on record?
Completion: 0.01 to 10 nM

###

# testedOn: human PASK (Homo sapiens, UniProt Q96RG2)
# Construct: purchased ThermoFisher Scientific PR7013A
# assayExplanation: ADP-Glo kinase assay
# Type: biochemical
# testContext: ADPGlo PASK kinase assay, 25 μM ATP, ZIPtide 25 μM
pIC50: −log10 of the molar value.
Reported pIC50 values for the following compounds.

Consider the following illustrative entries.
Cc1noc(C)c1-c1cnn2ccc(-c3cc(C(=O)O)co3)cc12	8.00 to 11.00
Cc1nn(C)c(C)c1-c1cnn2ccc(-c3cc(C(=O)O)co3)cc12	8.00 to 11.00
Cc1nn(C(C)C)c(C)c1-c1cnn2ccc(-c3cc(C(=O)O)co3)cc12	8.00 to 11.00
CCOC(=O)c1sc(-c2ccn3ncc(-c4c(C)nn(C)c4C)c3c2)nc1OCC	6.30 to 7.00
Cc1noc(C)c1-c1cnn2ccc(-n3cc(C(=O)O)cn3)cc12	7.00 to 8.00

Prompt: Would you kindly share the measured pIC50 for Cc1noc(C)c1-c1cnn2ccc(-c3nc(OC(F)F)c(C(=O)O)s3)cc12 ?
Completion: 8.00 to 11.00

Prompt: Field request: pIC50 | item: Cc1noc(C)c1-c1cnn2ccc(-c3nc(C(=O)O)c(C)o3)cc12
Completion: 7.00 to 8.00

Prompt: # lookup: pIC50 of Cc1nn(C)c(C)c1-c1cnn2ccc(-c3cc(C(N)=O)co3)cc12
Completion: 8.00 to 11.00

Prompt: Would you mind telling me what pIC50 value was observed for Cc1noc(C)c1-c1cnn2ccc(-c3cc(C(=O)O)c(C4CCOCC4)o3)cc12 ?
Completion: 8.00 to 11.00

###

# testedOn: human PASK (Homo sapiens, UniProt Q96RG2)
# Construct: purchased ThermoFisher Scientific PR7013A
# assayExplanation: 33P radioactive kinase assay
# Assay type: biochemical
# testContext: 33P radioactive PASK kinase assay, 10 μM ATP, ZIPtide 1 μM
pIC50: −log10 of the molar value.
Listed here: items and their measured pIC50.

Example molecules with recorded pIC50:
Cc1nn(C)c(C)c1-c1cnn2ccc(-c3cc(C(=O)OCC(=O)N(C)C)co3)cc12	7.00 to 8.00
Cc1noc(C)c1-c1cnn2ccc(-c3nc(C(F)(F)F)c(C(=O)O)o3)cc12	6.30 to 7.00
Cc1nn(C)c(C)c1-c1cnn2ccc(-c3cc(C(=O)O)c(C)o3)cc12	8.00 to 11.00
Cc1c(-c2cnn3ccc(-c4nc(C(=O)O)co4)cc23)cnn1C	7.00 to 8.00
CCOc1nc(-c2ccn3ncc(-c4c(C)noc4C)c3c2)sc1C(=O)O	8.00 to 11.00

Next molecule, pIC50 to be filled in.
Prompt: Param readout= pIC50; system= human PASK (Homo sapiens, UniProt Q96RG2); entry= Cc1nn(C)c(C)c1-c1cnn2ccc(-c3cc(C(=O)O)c(CC(C)C)o3)cc12 ; returns value.
Completion: 8.00 to 11.00

###

Each entry below carries its reported pIC50.
# testedOn: autophosphorylation of PASK at position Thr307 in Hek293 cells overexpressing PASK (Homo sapiens, UniProt Q96RG2)
# Sequence (Q96RG2 with tags, fused parts or gaps): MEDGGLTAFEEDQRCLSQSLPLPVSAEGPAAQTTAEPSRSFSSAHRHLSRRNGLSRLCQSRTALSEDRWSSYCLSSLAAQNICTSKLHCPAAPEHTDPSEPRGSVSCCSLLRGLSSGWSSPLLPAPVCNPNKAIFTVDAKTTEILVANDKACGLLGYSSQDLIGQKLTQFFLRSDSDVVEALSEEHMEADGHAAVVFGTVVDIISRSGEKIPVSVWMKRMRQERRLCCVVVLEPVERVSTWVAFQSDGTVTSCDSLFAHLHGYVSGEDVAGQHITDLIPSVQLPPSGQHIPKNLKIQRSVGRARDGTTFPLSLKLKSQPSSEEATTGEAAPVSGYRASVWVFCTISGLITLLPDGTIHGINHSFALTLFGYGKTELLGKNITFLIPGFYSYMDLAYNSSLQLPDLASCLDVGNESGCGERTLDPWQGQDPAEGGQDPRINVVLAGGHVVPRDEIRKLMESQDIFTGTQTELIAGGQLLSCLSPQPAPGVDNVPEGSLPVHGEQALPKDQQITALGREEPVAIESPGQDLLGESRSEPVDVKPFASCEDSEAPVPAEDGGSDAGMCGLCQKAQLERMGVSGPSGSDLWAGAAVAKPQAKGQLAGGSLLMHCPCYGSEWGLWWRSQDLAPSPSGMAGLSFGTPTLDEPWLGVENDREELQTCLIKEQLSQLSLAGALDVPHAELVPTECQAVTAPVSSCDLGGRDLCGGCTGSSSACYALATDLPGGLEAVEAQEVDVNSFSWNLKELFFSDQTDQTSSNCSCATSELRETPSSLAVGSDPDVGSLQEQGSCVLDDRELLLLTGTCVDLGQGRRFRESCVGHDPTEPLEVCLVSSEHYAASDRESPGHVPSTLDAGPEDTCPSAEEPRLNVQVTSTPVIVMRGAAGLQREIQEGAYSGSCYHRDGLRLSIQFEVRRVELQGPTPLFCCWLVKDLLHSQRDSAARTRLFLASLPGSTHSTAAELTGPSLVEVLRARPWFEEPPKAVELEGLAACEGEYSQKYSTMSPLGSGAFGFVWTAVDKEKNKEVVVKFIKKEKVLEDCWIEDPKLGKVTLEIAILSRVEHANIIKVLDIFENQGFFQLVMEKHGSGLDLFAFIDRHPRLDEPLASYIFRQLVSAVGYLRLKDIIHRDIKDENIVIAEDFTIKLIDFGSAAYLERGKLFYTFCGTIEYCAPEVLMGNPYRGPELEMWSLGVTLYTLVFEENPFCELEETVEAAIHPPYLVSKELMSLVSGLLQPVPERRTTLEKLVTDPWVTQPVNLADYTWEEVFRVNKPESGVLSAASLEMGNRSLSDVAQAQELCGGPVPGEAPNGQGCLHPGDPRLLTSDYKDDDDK
# assayExplanation: PASK autophosphorylation ELISA assay
# testContext: 24 h, ELISA readout
pIC50: −log10 of the molar value.

Before answering, review these 6 worked examples.
COc1nn(-c2ccn3ncc(-c4c(C)nn(CC(F)(F)F)c4C)c3c2)cc1C(=O)O [Cpd 68]	< 5.30
COc1nc(-c2ccn3ncc(-c4c(C)nn(C(C)C)c4C)c3c2)sc1C(=O)O [Cpd 74]	< 5.30
Cc1nn(C(C)C)c(C)c1-c1cnn2ccc(-c3cc(C(=O)O)co3)cc12 [Cpd 18]	6.00 to 6.30
CCn1nc(C)c(-c2cnn3ccc(-c4cc(C(=O)O)co4)cc23)c1C [Cpd 28]	6.00 to 6.30
Cc1nn(C)c(C)c1-c1cnn2ccc(-c3nc(C4CC4)c(C(=O)O)s3)cc12 [Cpd 86]	6.30 to 10.00
COc1nn(-c2ccn3ncc(-c4c(C)nn(C(C)C)c4C)c3c2)cc1C(=O)O [Cpd 66]	< 5.30

Prompt: Consider the compound shown here: CCn1nc(C)c(-c2cnn3ccc(-n4cc(C(N)=O)c(OC)n4)cc23)c1C [Cpd 82] What is its recorded pIC50?
Completion: < 5.30

Prompt: Data request, read-out pIC50, for Cc1nn(C(F)F)c(C)c1-c1cnn2ccc(-c3cc(C(=O)O)co3)cc12 [Cpd 35]
Completion: 5.30 to 6.00

Prompt: Returns the measured pIC50 for the input compound. Input: Cc1nn(C)c(C)c1-c1cnn2ccc(-c3nc(OCC(F)(F)F)c(C(=O)O)s3)cc12 [Cpd 90]
Completion: 6.00 to 6.30

###

# testedOn: human PASK (Homo sapiens, UniProt Q96RG2)
# Construct: purchased ThermoFisher Scientific PR7013A
# assayExplanation: ADP-Glo kinase assay
# Type: biochemical
# testContext: ADPGlo PASK kinase assay, 25 μM ATP, ZIPtide 25 μM
Measured IC50 of individual entries

Below, 8 molecules whose answers are already recorded.
CCOc1nc(-c2ccn3ncc(-c4c(C)nn(CC(F)(F)F)c4C)c3c2)sc1C(=O)O	0.01 to 10 nM
Cc1nn(C)c(C)c1-c1cnn2ccc(-n3cc(C(=O)O)cn3)cc12	0.01 to 10 nM
CCOc1nc(-c2ccn3ncc(-c4c(C)nn(C)c4C)c3c2)sc1C(=O)O	0.01 to 10 nM
Cc1c(-c2cnn3ccc(-c4cc(C(=O)O)co4)cc23)cnn1C	0.01 to 10 nM
CCOC(=O)c1sc(-c2ccn3ncc(-c4c(C)nn(C)c4C)c3c2)nc1OC	100 to 500 nM
Cc1nn(C)c(C)c1-c1cnn2ccc(-c3nc(OCC(F)(F)F)c(C(=O)O)s3)cc12	0.01 to 10 nM
Cc1noc(C)c1-c1cnn2ccc(-c3nc(C4CC4)c(C(=O)O)s3)cc12	0.01 to 10 nM
Cc1nn(C(F)F)c(C)c1-c1cnn2ccc(-n3cc(C(=O)O)cn3)cc12	0.01 to 10 nM

Prompt: Given Cc1nn(C)c(C)c1-c1cnn2ccc(-c3nc(C4CC4)c(C(=O)O)s3)cc12 , state its recorded IC50.
Completion: 0.01 to 10 nM

Prompt: Look up IC50: Cc1nn(C)c(C)c1-c1cnn2ccc(-c3cc(C(=O)OCOC(=O)C(C)(C)C)co3)cc12
Completion: 100 to 500 nM

Prompt: I am curious: what IC50 value has been reported for COCCOc1nc(-c2ccn3ncc(-c4c(C)noc4C)c3c2)sc1C(=O)O ?
Completion: 0.01 to 10 nM

Prompt: Would you mind telling me what IC50 value was observed for CCOc1nc(-c2ccn3ncc(-c4c(C)nn(C(C)C)c4C)c3c2)sc1C(=O)O ?
Completion: 0.01 to 10 nM

Prompt: Give the measured IC50 of Cc1nn(CC(F)(F)F)c(C)c1-c1cnn2ccc(-n3cc(C(=O)O)cn3)cc12 .
Completion: 0.01 to 10 nM

Prompt: # input molecule: Cc1nn(C(F)F)c(C)c1-c1cnn2ccc(-c3ccc(C(=O)O)o3)cc12 ; wanted: its IC50
Completion: 0.01 to 10 nM

Taken from patent US20220144823A1.
